Reported half-life values follow for various molecules
# METHOD_NOTES: Half-life in Sprague-Dawley rat at 1 mg/kg, iv measured upto 24 hrs by LC-MS/MS analysis
# Assay type: ADME, organism-based
# CONDITION_NOTES: in vivo
Write the value in h as a bare number.

Field: example entries. Status: answers known.
{"columns": ["CHEMICAL_STRUCTURE", "UOM", "READOUT_NUMBER"],
 "data": [
  ["CC(C)n1cnc(-c2ccccc2Nc2nc(Nc3ccc(N(C)C4CCN(C)CC4)cc3)ncc2Cl)n1", "h", 6.6],
  ["CN1CCN(Cc2ccc(Nc3ncc(Cl)c(Nc4ccccc4S(=O)(=O)N(C)C)n3)cc2)CC1", "h", 1.77]
]}

Please examine the following record next.
Tell us which half-life value is on record for CC(=O)N1CCN(c2ccc(Nc3ncc(Cl)c(Nc4ccccc4-c4ncn(C(C)C)n4)n3)cc2)CC1
1.49

* * *

# EXPERIMENTAL_SYSTEM: ALK tyrosine kinase receptor (Homo sapiens, UniProt Q9UM73)
# Sequence (Q9UM73 whole entry): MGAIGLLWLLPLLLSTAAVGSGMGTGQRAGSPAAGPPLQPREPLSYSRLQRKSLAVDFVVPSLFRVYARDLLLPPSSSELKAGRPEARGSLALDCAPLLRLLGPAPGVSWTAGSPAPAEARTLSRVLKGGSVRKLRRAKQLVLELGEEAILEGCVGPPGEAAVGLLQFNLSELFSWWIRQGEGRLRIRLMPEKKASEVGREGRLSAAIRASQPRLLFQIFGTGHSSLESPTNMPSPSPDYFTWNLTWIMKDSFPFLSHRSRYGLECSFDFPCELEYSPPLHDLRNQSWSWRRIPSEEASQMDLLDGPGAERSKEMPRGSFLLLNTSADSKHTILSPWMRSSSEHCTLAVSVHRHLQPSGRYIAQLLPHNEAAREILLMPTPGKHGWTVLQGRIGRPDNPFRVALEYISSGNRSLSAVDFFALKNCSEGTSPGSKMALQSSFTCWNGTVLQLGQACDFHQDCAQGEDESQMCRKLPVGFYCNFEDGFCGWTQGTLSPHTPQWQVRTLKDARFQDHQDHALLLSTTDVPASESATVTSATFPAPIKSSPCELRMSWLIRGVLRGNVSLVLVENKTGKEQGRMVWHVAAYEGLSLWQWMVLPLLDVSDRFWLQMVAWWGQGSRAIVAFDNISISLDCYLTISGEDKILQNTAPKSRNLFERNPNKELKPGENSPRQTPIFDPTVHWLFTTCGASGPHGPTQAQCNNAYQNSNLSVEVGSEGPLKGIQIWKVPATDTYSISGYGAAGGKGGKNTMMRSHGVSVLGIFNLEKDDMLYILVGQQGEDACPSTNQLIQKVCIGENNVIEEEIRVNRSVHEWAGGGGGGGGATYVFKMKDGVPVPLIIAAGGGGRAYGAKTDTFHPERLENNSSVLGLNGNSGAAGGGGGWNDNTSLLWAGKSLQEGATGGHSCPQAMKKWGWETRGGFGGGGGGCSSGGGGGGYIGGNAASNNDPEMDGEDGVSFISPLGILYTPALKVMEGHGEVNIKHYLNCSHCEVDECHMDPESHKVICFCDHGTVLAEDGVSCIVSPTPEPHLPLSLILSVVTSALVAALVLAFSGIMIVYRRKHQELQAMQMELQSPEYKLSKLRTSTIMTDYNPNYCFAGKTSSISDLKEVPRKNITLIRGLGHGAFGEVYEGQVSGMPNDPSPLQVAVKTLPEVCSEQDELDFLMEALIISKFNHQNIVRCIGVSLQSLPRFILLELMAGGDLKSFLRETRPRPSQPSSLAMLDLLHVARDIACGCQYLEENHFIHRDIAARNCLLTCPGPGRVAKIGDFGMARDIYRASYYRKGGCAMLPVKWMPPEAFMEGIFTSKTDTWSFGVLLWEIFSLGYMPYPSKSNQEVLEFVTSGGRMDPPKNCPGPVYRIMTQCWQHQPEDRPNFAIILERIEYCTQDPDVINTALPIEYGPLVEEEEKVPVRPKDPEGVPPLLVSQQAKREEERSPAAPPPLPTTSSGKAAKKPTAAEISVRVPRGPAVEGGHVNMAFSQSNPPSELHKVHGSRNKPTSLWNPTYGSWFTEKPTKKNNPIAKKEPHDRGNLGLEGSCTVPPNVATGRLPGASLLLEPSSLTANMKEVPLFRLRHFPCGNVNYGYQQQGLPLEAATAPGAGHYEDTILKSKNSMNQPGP
REPORTED_PROPERTY: IC50

Tell us which IC50 value is on record for Cc1nc(-c2ccccc2Nc2nc(Nc3ccc(CN4CCN(C)CC4)cc3)ncc2Cl)n[nH]1
0.5 µM

* * *

# METHOD_NOTES: AUC (0 to last) in Sprague-Dawley rat at 1 mg/kg, iv measured upto 24 hrs by LC-MS/MS analysis
# Type: ADME, organism-based
# Set-up: dose 1 mg/kg, time < 24 hrs, route iv
# CONDITION_NOTES: in vivo
Reported AUClast values follow for various compounds
Write the value in µg·h/mL as a bare number.

Field: example entries. Status: answers known.
{"columns": ["CHEMICAL_STRUCTURE", "AUClast [µg·h/mL]"],
 "data": [
  ["CN1CCN(Cc2ccc(Nc3ncc(Cl)c(Nc4ccccc4S(=O)(=O)N(C)C)n3)cc2)CC1", 0.187],
  ["CC(C)n1cnc(-c2ccccc2Nc2nc(Nc3ccc(N(C)C4CCN(C)CC4)cc3)ncc2Cl)n1", 0.422]
]}

Please examine the following record next.
Tell us which AUClast value is on record for CC(=O)N1CCN(c2ccc(Nc3ncc(Cl)c(Nc4ccccc4-c4ncn(C(C)C)n4)n3)cc2)CC1
0.497
